# Test system: NCI-H460 lung
# ASSAY PROCEDURE: NCI-60 one-dose screen, 48 h
# CONDITION LABEL: 10 µM unless noted
The panel holds about 83,000 compounds, 20% with a hit somewhere; the sample as a whole holds those more often. Active and inactive are the calls of the source. The calls were made as follows: active = growth percent below 10; inactive = the rest.
Possible outcomes: active, inactive

{"ENTRY SMILES": "CN1CCN(c2ccc3c(c2)nc(NNC(=O)c2ncccn2)c2cccn23)CC1", "ASSAY SYSTEM": "NCI-H460 lung", "CAT": "active"}
{"ENTRY SMILES": "Cc1c(C(=O)NNC(=O)c2ccc(Cl)cc2)nnn1-c1ccc(Cl)cc1", "ASSAY SYSTEM": "NCI-H460 lung", "CAT": "inactive"}
{"ENTRY SMILES": "COc1ccc(NC(=O)Cn2c(/C=C/c3cccc([N+](=O)[O-])c3)nc3ccccc3c2=O)cc1", "ASSAY SYSTEM": "NCI-H460 lung", "CAT": "inactive"}
{"ENTRY SMILES": "CCCCSc1nc(Nc2ccc(S(N)(=O)=O)cc2)c(C#N)c(-c2ccc(Cl)cc2)n1", "ASSAY SYSTEM": "NCI-H460 lung", "CAT": "active"}
{"ENTRY SMILES": "C#CCOc1ccc(/C=N/Nc2nc(-c3cc4cc(Br)ccc4oc3=O)cs2)cc1OC", "ASSAY SYSTEM": "NCI-H460 lung", "CAT": "inactive"}

----------
Measured growth, listed per entry.
# Test system: HOP-62 NSCLC
# ASSAY PROCEDURE: NCI-60 one-dose screen, 48 h (100 = growth as untreated, 0 = no growth, -100 = all killed)
# CONDITION LABEL: 10 µM unless noted
The panel holds about 83,000 compounds, 20% with a hit somewhere; the sample as a whole holds those more often.
RESULT TYPE: growth (%)

{"ENTRY SMILES": "Cn1cc(-c2nnc(N)nc2-c2c[nH]c3ccccc23)c2cccnc21", "REPORTED RESULT": 48.1}
{"ENTRY SMILES": "COc1ccc(-c2nc3ccc(C(=O)NN4C(=O)c5ccc([N+](=O)[O-])cc5C4=O)cc3[nH]2)cc1", "REPORTED RESULT": 91.8}
{"ENTRY SMILES": "COc1cc2oc(-c3cccc(C(=O)Nc4ccc(Cl)cc4)c3)cc(=O)c2c(OCCNC(=O)[C@H](CO)NC(=O)OC(C)(C)C)c1OC", "REPORTED RESULT": 55.1}
{"ENTRY SMILES": "O=C(NN1C(=O)/C(=C/C=C/c2ccc([N+](=O)[O-])o2)SC1=S)c1ccccc1O", "REPORTED RESULT": -53.5}

----------
# Tested on: MDA-MB-468 breast
# ASSAY PROCEDURE: NCI-60 one-dose screen, 48 h (100 = growth as untreated, 0 = no growth, -100 = all killed)
# CONDITION LABEL: 10 µM unless noted
This is part of a sample that, as a whole, favours compounds with a hit. Of some 83,000 tested, about 20% had one in any assay.
Measured growth, listed per entry.

{"MOLECULE": "COc1ccccc1/C=C/C(=O)c1ccc(OC)c(S(N)(=O)=O)c1", "UNIT LABEL": "%", "growth": 20.7}
{"MOLECULE": "NS(=O)(=O)c1ccc(N=Nc2c(O)n(CC(=O)Nc3ccccc3)c3ccccc23)cc1", "UNIT LABEL": "%", "growth": 36.5}
{"MOLECULE": "Cc1ccc(S(=O)(=O)c2nc(S(=O)(=O)c3ccc(C)cc3)c(N3CCN(C)CC3)s2)cc1", "UNIT LABEL": "%", "growth": -15}
{"MOLECULE": "CCCCCCCS(=O)(=O)N1CCCC(C(=O)Nc2nc3ccc(NC(=O)c4ccc(F)c(OC)c4F)cc3s2)C1 (centres undefined)", "UNIT LABEL": "%", "growth": -4.4}
{"MOLECULE": "CC(=O)Oc1ccc(/C=C/C(=O)N[C@@H](Cc2ccccc2)C(O)C(=O)NCc2ccccc2)cc1OC(C)=O (some centres undefined)", "UNIT LABEL": "%", "growth": 78.1}
{"MOLECULE": "COc1cc(C2CC(c3cc(OC)c(OC)c(OC)c3)=NN2C(C)=O)ccc1OCc1ccc(F)cc1 (centres undefined)", "UNIT LABEL": "%", "growth": 47.1}
{"MOLECULE": "COc1ccc2[nH]cc(-c3nc(N)nnc3-c3cn(C)c4ncccc34)c2c1", "UNIT LABEL": "%", "growth": 27.6}
{"MOLECULE": "O=c1c2ccccc2nc(-c2ccccc2)n1/N=C/c1ccc2ccccc2c1", "UNIT LABEL": "%", "growth": 67.2}
{"MOLECULE": "COc1c(F)ccc(C(=O)Nc2ccc3nc(NC(=O)C4CCCN(S(=O)(=O)C5CC5)C4)sc3c2)c1F (centres undefined)", "UNIT LABEL": "%", "growth": 3.58}

Attribution: PubChem BioAssay (NCI)
